- assay-protocol: Stability in mouse plasma assessed as parent compound remaining after 4 hrs
- Type: ADME, cell-free
- condition: read-out: Stability
endpoint-name: remaining at 4 h

Answer with the recorded remaining at 4 h of `O=C(Nc1ccccc1)N1CCN(c2cccc3[nH]ccc23)CC1` only.
> 95%

====

// endpoint IC50 / system Aspartate aminotransferase, cytoplasmic (Homo sapiens)

Previously resolved entries follow.
>>> data_value("Cc1ccc(N2CCN(C(=O)Nc3ccccc3)CC2)c2cc[nH]c12")
"41 µM"
>>> data_value("O=C(Nc1ccnnc1)N1CCN(c2cccc3[nH]ccc23)CC1")
"> 100 µM"
>>> data_value("Cc1cccc(NC(=O)N2CCN(c3cccc4[nH]ccc34)CC2)c1C")
"> 100 µM"
>>> data_value("Cc1cccc(NC(=O)N2CCN(c3cccc4[nH]ccc34)CC2)c1")
"> 100 µM"
>>> data_value("Cc1ccccc1NC(=O)N1CCN(c2cccc3[nH]ccc23)CC1")
"> 100 µM"

Give the value of IC50 reported for the following: `COc1cc(NC(=O)N2CCN(c3cccc4[nH]ccc34)CC2)cc(OC)c1`
> 100 µM

====

# collection of IC50 values tested on Aspartate aminotransferase, cytoplasmic (Homo sapiens)
# Sequence (P17174 whole entry): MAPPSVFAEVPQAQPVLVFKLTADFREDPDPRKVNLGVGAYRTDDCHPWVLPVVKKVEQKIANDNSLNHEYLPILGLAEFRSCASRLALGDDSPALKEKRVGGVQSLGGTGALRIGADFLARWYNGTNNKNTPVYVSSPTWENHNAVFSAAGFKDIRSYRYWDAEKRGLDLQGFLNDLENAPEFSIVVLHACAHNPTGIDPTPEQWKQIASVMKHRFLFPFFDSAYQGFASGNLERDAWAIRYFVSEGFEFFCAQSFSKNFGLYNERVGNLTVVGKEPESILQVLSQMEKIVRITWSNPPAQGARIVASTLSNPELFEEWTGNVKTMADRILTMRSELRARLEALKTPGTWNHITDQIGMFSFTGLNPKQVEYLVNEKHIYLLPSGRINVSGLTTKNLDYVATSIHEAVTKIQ

Some solved entries appear below for comparison.
>>> data_value("O=C(CCc1ccccc1)N1CCN(c2cccc3[nH]ccc23)CC1")
"> 100 µM"
>>> data_value("Cc1ccc(NC(=O)N2CCN(c3cccc4[nH]ccc34)CC2)cc1")
"> 100 µM"
>>> data_value("O=C(NCc1ccc(Cl)cc1)N1CCN(c2cccc3[nH]ccc23)CC1")
"> 100 µM"
>>> data_value("CC(C)NC(=O)N1CCN(c2cccc3[nH]ccc23)CC1")
"> 100 µM"
>>> data_value("CS(=O)(=O)N1CCN(C(=O)Nc2ccccc2)CC1")
"> 100 µM"
>>> data_value("O=C(Nc1ccc(Cl)cc1Cl)N1CCN(c2cccc3[nH]ccc23)CC1")
"56 µM"
>>> data_value("O=C(Nc1ccccc1)N1CCN(Cc2cncs2)CC1")
"> 100 µM"
>>> data_value("O=C(OCc1ccccc1)N1CCN(c2cccc3[nH]ccc23)CC1")
"> 100 µM"
>>> data_value("CC(=O)N1CCN(C(=O)Nc2ccccc2)CC1")
"> 100 µM"
>>> data_value("O=C(Nc1cccc(Oc2ccccc2)c1)N1CCN(c2cccc3[nH]ccc23)CC1")
"39 µM"

Could you please provide reported IC50 for `O=C(c1ccccc1)c1ccc(NC(=O)N2CCN(c3cccc4[nH]ccc34)CC2)cc1` ? Thanks!
43 µM

====

- assay-system: Aspartate aminotransferase, cytoplasmic (Homo sapiens)
- assay-protocol: Inhibition of GOT1 (unknown origin) using aspartate and alpha-ketoglutarate as substrate after 20 mins by MDH1 enzyme-coupled fluorescence assay
endpoint-name: pIC50
Numbers only, as −log10 of the molar value.

>>> data_value("O=C(Nc1cccc(Cl)c1)N1CCN(c2cccc3[nH]ccc23)CC1")
4.28

Items follow; give pIC50 for each.
1. O=C(NCCc1c[nH]c2ccccc12)Nc1ccc(Br)cc1
2. O=C(NCCc1c[nH]c2ccccc12)Nc1ccccc1-c1ccccc1
3. O=C(NCCc1c[nH]c2ccccc12)Nc1cccc(C(F)(F)F)c1

[4.17, 4.47, 4.21]
